# STUDY TARGET: T1, Human VSIG4-S-His (human, UniProt Q9Y279 20-283)
# T1 construct: short isoform ECD with His tag; also called hVSIG4-S; VISG4-S-His
# T1 sequence: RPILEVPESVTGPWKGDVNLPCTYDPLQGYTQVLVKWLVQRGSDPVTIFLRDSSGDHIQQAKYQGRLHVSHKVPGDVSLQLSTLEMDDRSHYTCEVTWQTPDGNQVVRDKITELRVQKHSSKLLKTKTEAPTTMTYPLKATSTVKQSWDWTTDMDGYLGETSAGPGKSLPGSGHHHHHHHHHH
# MEASUREMENT NOTES: BLI (Octet), mouse IgG on AMC sensor, antigen 100 nM;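 also: octet Red384 biolayer interferometry with immobilized mouse hybridoma antibodies, 300 s association then 300 s dissociation at 30 °C, isotype-control reference subtraction, 1:1 global fit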
pKd: −log10 of the molar value.
Attribute: pKd
REPORTED PROPERTY: pKd

INSERT INTO results (binder, recorded_measurement) VALUES
  ('1C6.D6 murine hybridoma antibody (antibody, V domains shown, murine IgG purified from hybridoma supernatant; also called 1C6.D6b) VH: QVQLQQPGAEMVRPGTSVKLSCKASGYTFTSYWMHWVKQRPGQGLEWIGKIDPSHNKTHYIQKFEDKATLTVDKSSSTAYMHLNSLTSEDSAVYYCVTWDGDFLYWGQGTLVTVSA VL: NIVLTQSPASLTVSLGQRATISCRASESVDSYGNSFMHWYQQKPGQPPKLLIYITSNLQSGVPARFSGGGSRTDFTLTIDPVEADDAATYYCQQNNEDPWTFGGGTKLEIK', 8.48),
  ('5D2.C8 murine hybridoma antibody (antibody, V domains shown, murine IgG purified from hybridoma supernatant) VH: EVKLVESGGGLVKPGGSLKLSCAVSGFTFSNSAMSWVRQTPAKRLEWVAYISISGDNTYYPDSVKGRFTISRDNAKNTLYLQMSSLRSEDTAMYYCARRGYDYDGFTHWGQGTLVTVSA VL: DILLTQSPAILSVSPGERVSFSCRASQNIGTSIHWYQQRTNGSPRLLIKYASQSISGIPSRFSGSGSGTDFTLSINSVESEDIADYYCQQSYSWPLTFGTGTQLELK', 9.30);
